# ASSAY OVERVIEW: Super-solvent water effect (maximum water before NSAID precipitates)
# Assay type: physicochemical
# CONDITIONS USED: Ibuprofen 2 gm, PG 4 gm, EtOH 1 gm
READOUT TYPE: Super-solvent Effect on water (%)
Reply with just the number (in %).

Q. Endpoint output: Super-solvent Effect on water of CC(C)Cc1ccc(C(C)C(=O)O)cc1 (stereo not shown) . Value?
A. 65.8

* * *

# ASSAY OVERVIEW: Super-solvent water effect (maximum water before NSAID precipitates)
# Format: physicochemical
# CONDITIONS USED: Ibuprofen 2 gm, EtOH 1 gm, IPA 1.1 gm
READOUT TYPE: Super-solvent Effect on water (%)
Quick reminder: number only, in %, skip the unit.

Q. Would you mind telling me what Super-solvent Effect on water value was observed for CC(C)Cc1ccc(C(C)C(=O)O)cc1 (stereo not shown) [Ibuprofen] ?
A. 11.4
